Recorded MIC values for a group of compounds are listed next.
- Tested on: Staphylococcus aureus
- experiment.description: Antibacterial activity against methicillin-, inducible MLS-resistant Staphylococcus aureus PU 32 by broth microdilution method
measurement.name: MIC

{"smiles.record": "CC[C@H]1OC(=O)[C@H](C)[C@@H](O)[C@H](C)[C@@H](O[C@@H]2O[C@H](C)C[C@H](N(C)C)[C@H]2O)[C@](C)(OC)C[C@@H](C)C(=O)[C@H](C)[C@@H](O)[C@]1(C)O", "endpoint.value": "> 256 µg/mL"}
{"smiles.record": "CC[C@H]1OC(=O)[C@H](C)[C@@H](OC/C=C/c2cncnc2)[C@H](C)[C@@H](O[C@@H]2O[C@H](C)C[C@H](N(C)C)[C@H]2O)[C@](C)(OC)C[C@@H](C)/C(=N\\OCc2c(C)cc(C)cc2C)[C@H](C)[C@H]2OC(=O)O[C@@]21C", "endpoint.value": "> 256 µg/mL"}
{"smiles.record": "CC[C@H]1OC(=O)[C@H](C)[C@@H](OCCCc2cccnc2)[C@H](C)[C@@H](O[C@@H]2O[C@H](C)C[C@H](N(C)C)[C@H]2O)[C@](C)(OC)C[C@@H](C)/C(=N\\OCc2ccccc2Cl)[C@H](C)[C@H]2OC(=O)O[C@@]21C", "endpoint.value": "> 256 µg/mL"}
{"smiles.record": "CC[C@H]1OC(=O)[C@H](C)[C@@H](OCCCc2cncnc2)[C@H](C)[C@@H](O[C@@H]2O[C@H](C)C[C@H](N(C)C)[C@H]2O)[C@](C)(OC)C[C@@H](C)/C(=N\\O)[C@H](C)[C@@H](O)[C@]1(C)O", "endpoint.value": "8 µg/mL"}

====

- Test system: Streptococcus pneumoniae
- experiment.description: Antibacterial activity against erythromycin-susceptible Streptococcus pneumoniae ATCC 49619 by broth microdilution method
- Assay type: functional

{"smiles.record": "CC[C@H]1OC(=O)[C@H](C)[C@@H](OCCCc2cncnc2)[C@H](C)[C@@H](O[C@@H]2O[C@H](C)C[C@H](N(C)C)[C@H]2O)[C@](C)(OC)C[C@@H](C)/C(=N\\O)[C@H](C)[C@@H](O)[C@]1(C)O", "units.text": "µg/mL", "reading.qualifier": "=", "MIC": 1}
{"smiles.record": "CC[C@H]1OC(=O)[C@H](C)[C@@H](OCC#Cc2cncnc2)[C@H](C)[C@@H](O[C@@H]2O[C@H](C)C[C@H](N(C)C)[C@H]2O)[C@](C)(OC)C[C@@H](C)/C(=N\\OCc2ccccc2Cl)[C@H](C)[C@H]2OC(=O)O[C@@]21C", "units.text": "µg/mL", "reading.qualifier": "=", "MIC": 16}
{"smiles.record": "CC[C@H]1OC(=O)[C@H](C)[C@@H](OCC#Cc2cncnc2)[C@H](C)[C@@H](O[C@@H]2O[C@H](C)C[C@H](N(C)C)[C@H]2O)[C@](C)(OC)C[C@@H](C)/C(=N\\O)[C@H](C)[C@@H](O)[C@]1(C)O", "units.text": "µg/mL", "reading.qualifier": ">", "MIC": 256}
{"smiles.record": "CC[C@H]1OC(=O)[C@H](C)[C@@H](O/C=C\\Cc2cncnc2)[C@H](C)[C@@H](O[C@@H]2O[C@H](C)C[C@H](N(C)C)[C@H]2O)[C@](C)(OC)C[C@@H](C)/C(=N\\OCc2ccccc2)[C@H](C)[C@H]2OC(=O)O[C@@]21C", "units.text": "µg/mL", "reading.qualifier": "=", "MIC": 0.25}
